Tested on: NCI-H1341 complex spheroids, percent test/control
Experiment: Anticancer human tumor NCI-H1341 cell line growth inhibition [AhR];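 note: spheroids exposed to agents for seven days before readout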
Settings: second compound 0.1 µM; first compound 0.0949 µM; stronger effect = lower value

# compound, unit-string, viability, T/C
measured = [
    ("CCc1c2c(nc3ccc(O)cc13)-c1cc3c(c(=O)n1C2)COC(=O)[C@]3(O)CC + CC(CO)NC(=O)c1cc(-c2ccc(Cl)cc2)nn(-c2cnn(C)c2)c1=O", "%", 30.7),
    ("O=C(C=Cn1cnc(-c2cc(C(F)(F)F)cc(C(F)(F)F)c2)n1)NNc1cnccn1 + Cc1ccccc1N=Nc1ccc(NC(=O)c2ccnn2C)c(C)c1", "%", 35.2),
    ("Nc1ncn(C2CC(O)C(CO)S2)c(=O)n1 (stereo not drawn) + CC(CO)NC(=O)c1cc(-c2ccc(Cl)cc2)nn(-c2cnn(C)c2)c1=O", "%", 63.6),
]

This collection of values is drawn from PubChem BioAssay AID1919014.
